System tested: Cytochrome P450 2D6 (Homo sapiens)
Experiment summary: Cytochrome panel assay with activity outcomes
Condition label: recombinant CYP, pro-luciferin dealkylation, luminescence, p450-cyp2d6; series mostly up to 57.1 µM
About 2,600 (16%) of roughly 16,000 compounds were called active. About 20% were inconclusive and are not listed. These entries were drawn from the full list.
Value kind: AC50

O=C(CCCN1CCC(O)(c2ccc(Br)cc2)CC1)c1ccc(F)cc1; 3980 nM (active)
CN(C)CC[C@H](c1ccc(Cl)cc1)c1ccccn1; 31600 nM (active)
COc1cccc(Nc2ncc3nc(CCc4ccccc4)c(=O)n(C4CC4)c3n2)c1; inactive
C/C(=C\C(=O)c1ccc(Br)cc1)NCc1ccc2c(c1)OCO2; 7940 nM (active)
Cc1cc(=O)[nH]c2ccccc12; inactive
CCOC(=O)c1cc(NC(=O)c2ccc(C)cc2)c(=O)oc1-c1ccccc1; inactive
CN1/C(=C\C=[N+](C)c2ccccc2)C(C)(C)c2ccccc21; 316 nM (active)
COc1cccc(Nc2ncc3nc(-c4cccs4)c(=O)n(Cc4cccs4)c3n2)c1; inactive
CCNc1ncc2nc(CCc3ccccc3)c(=O)n(C)c2n1; 1580 nM (active)
COCC(=O)Nc1c(I)c(C(=O)NC[C@@H](O)CO)c(I)c(C(=O)N(C)C[C@@H](O)CO)c1I; inactive
CCSC(N)=Nc1ccc(C(F)(F)F)cc1; inactive
Nc1nc(Cl)nc2c1ncn2[C@@H]1O[C@@H](COP(=O)(O)OP(=O)(O)OP(=O)(O)O)[C@@H](O)[C@H]1O; inactive
Cc1ccc2[nH]c(-c3ccccc3)c(CN(C)C)c(=O)c2c1; 31.6 nM (active)
CC(=O)Oc1ccc(C(c2ccc(OC(C)=O)cc2)c2ccccn2)cc1; inactive
COc1ccc(-n2c(C)cc(C=O)c2C)cc1Cl; inactive
Cc1cc(C(=O)C(=O)NC(C)C)c(C)n1-c1ccc([N+](=O)[O-])cc1; inactive
COCCn1c(=O)c(C)nc2cnc(Oc3ccc(OC)cc3)nc21; inactive
C=CC1=C(C)C2=Cc3c(C=C)c(C)c4[n]3[Sn+2][n]3c(c(C)c(CCC(=O)O)c3=CC3=NC(=C4)C(C)=C3CCC(=O)O)=CC1=N2; 1260 nM (active)
Cn1c(=O)c(CCc2ccccc2)nc2cncnc21; inactive
CO/N=C(\C(=O)N[C@@H]1C(=O)N2C(C(=O)O)=C(COC(C)=O)CS[C@@H]12)c1csc(N)n1; inactive
CCCCCCN(CCCCCC)C(=O)Cc1c(-c2ccc(F)cc2)[nH]c2ccccc12; inactive
COc1ccc(-n2c(=O)c(CCc3ccccc3)nc3cnc(N4CCN(C)CC4)nc32)cc1; inactive
CCCn1c(-c2ccccc2)nc2c(=O)n(C)c(=O)[nH]c21; inactive
Cc1ccc(Sc2nc(-c3ccccc3)ccc2C#N)cc1; inactive
Cc1nnsc1SC(C)C(=O)O (stereo not given); inactive
C#C[C@]1(O)CC[C@H]2[C@H]3CCC4=Cc5oncc5C[C@]4(C)[C@@H]3CC[C@]21C; inactive
CCc1cc(C(=O)OC)c(NC(=O)CCCC(=O)O)s1; inactive
Cc1c(NC(=S)/C=C2\N(C)c3ccccc3C2(C)C)c(=O)n(-c2ccccc2)n1C; inactive
COc1cccc(/C=N/n2nnc3c(cnn3-c3ccccc3)c2=O)c1; inactive
O=C(Cc1ccc(Br)cc1)OCC(=O)c1ccc2c(c1)OCCO2; inactive
CN1/C(=C/C=C(/C#N)C(N)=O)C(C)(C)c2ccccc21; inactive
COc1ccc(-n2c(=O)c(CCc3ccccc3)nc3cncnc32)cc1; inactive
Cc1nc2c(C#N)c(C)[nH]n2c(=O)c1Cc1ccccc1; inactive
CCN(CC)c1ccc(SS(=O)(=O)O)cc1; inactive
COc1ncc2nc(-c3ccc(F)cc3)c(=O)n(Cc3ccc(F)cc3)c2n1; inactive
Cn1c(=O)c(CCc2ccccc2)nc2cnc(Nc3ccccc3)nc21; inactive
CN(C)c1ccc(N=C/C=C2\N(C)c3ccccc3C2(C)C)cc1; 2240 nM (active)
Oc1ccccc1CNn1cnnc1; inactive
CCC(Sc1nc2n[nH]c(C)c2c(=N)n1-c1cccc(Cl)c1)C(=O)NCCOC (stereo not given); inactive
COc1ncc2nc(CCc3ccccc3)c(=O)n(-c3ccccc3)c2n1; inactive

====

System tested: Cytochrome P450 2D6 (Homo sapiens) (UniProt P10635)
Sequence (P10635 whole entry, looked up): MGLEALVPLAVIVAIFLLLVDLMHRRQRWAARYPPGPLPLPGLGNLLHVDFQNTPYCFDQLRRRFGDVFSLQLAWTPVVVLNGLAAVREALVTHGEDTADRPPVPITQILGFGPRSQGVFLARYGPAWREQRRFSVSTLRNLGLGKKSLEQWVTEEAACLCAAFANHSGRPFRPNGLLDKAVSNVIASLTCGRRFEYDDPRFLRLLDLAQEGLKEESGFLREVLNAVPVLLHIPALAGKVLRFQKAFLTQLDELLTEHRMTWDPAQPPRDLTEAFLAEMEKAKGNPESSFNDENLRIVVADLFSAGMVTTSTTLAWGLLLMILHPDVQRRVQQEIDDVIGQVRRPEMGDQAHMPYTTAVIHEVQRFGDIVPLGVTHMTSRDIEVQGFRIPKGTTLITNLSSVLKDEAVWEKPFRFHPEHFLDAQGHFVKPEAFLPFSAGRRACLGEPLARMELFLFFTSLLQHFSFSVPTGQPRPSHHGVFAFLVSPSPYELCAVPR
Experiment summary: Cytochrome panel assay with activity outcomes
Condition label: recombinant CYP, pro-luciferin dealkylation, luminescence, p450-cyp2d6; series mostly up to 57.1 µM
The campaign covered roughly 16,000 compounds. About 2,600 (16%) were called active. Inconclusive results (about 20%) are left out. Calls come from the whole dose curve; as a rule, active = well fitted curve in the direction sought with a large enough effect; inconclusive = small, poorly fitted or top-dose-only effect, or effect the other way; inactive = no such curve, though single readings can be large or run the other way. The list is a sample of the results.
Outcomes: Y (active), N (inactive)

O=C(c1cccc(F)c1)N1CCC[C@@]2(CCN(c3ccccc3)C2)C1; N
Nc1ccc(S(=O)(=O)NC(=O)c2ccccc2)cc1; N
CCc1cc(Cl)c(OC)c(C(=O)NC[C@@H]2CCCN2CC)c1O; Y
O=C(NNC(=O)c1ccccc1-n1cccc1)c1ccccc1; N
CCN1CCCC1CNC(=O)CCNC(=O)c1cc(OC)c(OC)c(OC)c1 (centres undefined); N
CCCCCCN(CCCCCC)C(=O)Cc1c(-c2ccc(Cl)cc2)[nH]c2ccc(Cl)cc12; N
CNCCc1ccccn1; N
Clc1ccc(-c2cc3ccccc3[nH]2)cc1; N
CCN(CC)S(=O)(=O)c1ccc(OC)c(NC(=O)c2cc([N+](=O)[O-])ccc2Cl)c1; N
O=C(NNC(=O)c1ccccc1O)c1ccc(Cl)cc1; Y
c1ncc(-c2ccc3c(c2)OCO3)c(NCCc2cnc[nH]2)n1; Y
CCN1CCC[C@H]1CNC(=O)c1cc(S(N)(=O)=O)ccc1OC; N
CN1CCN(c2ncc3nc(CCc4ccccc4)c(=O)n(Cc4ccc(F)cc4)c3n2)CC1; N
Cc1cc(NC(=O)CCCC(=O)OCC(F)(F)C(F)F)cc(C)c1C(=O)O; N
COCC1C2CC[C@H]3C(OCc4ccc(F)cc4C(F)(F)F)OC[C@]4(C)[C@H]3C2=C(CN4C(=O)OC(C)(C)C)[C@H](C)C1COC (some centres undefined); N
COc1cnc(-c2ccccn2)nc1Sc1c(Cl)cccc1Cl; N
O=C(O)C1CCCCC1C(=O)Nc1cc(Cl)ccc1Cl (centres undefined); N
N#C/C(=C\c1cc(Cl)cc(Cl)c1O)C(=O)NC1CCCCC1; N
COc1ccc(-n2nc(C(=O)NCC(=O)Nc3ccccn3)c3ccccc3c2=O)cc1; N
Cc1noc(C)c1C(=O)N1CCC2(CCCN(C(=O)NC(C)C)C2)CC1; N
CNC(=O)/C(C#N)=c1\s/c(=C/C(=O)OC)c(=O)n1-c1ccccc1; N
CCOC(=O)Nc1ccc(C)cc1NC(=O)OCC; N
CC(=O)c1nnn(-c2nc(N)nc(N(c3ccccc3)c3ccccc3)n2)c1C; N
Cc1nn(Cc2c(F)c(F)c(F)c(F)c2F)c(C)c1NC(=O)c1c(-c2ccccc2)nn(-c2ccccc2)c1C; N
CCOc1ccc(NC(=O)C(=O)NCC2CCCN2CC)cc1 (centres undefined); N
CCOC(=O)NC(NC(=O)OCC)C(=O)c1ccc(F)cc1; N
COCCNC(=O)CCCCCn1c(=S)[nH]c2ccccc2c1=O; N
Cc1cc(=O)c2cc(Cl)ccc2[nH]1; N
CC(=O)NCCNc1ncncc1-c1ccc(N(C)C)cc1; N
COc1ccc([N+](=O)[O-])cc1N(CC(O)CN(CC(C)C)CC(C)C)S(=O)(=O)c1ccccc1 (centres undefined); Y
CN(C)CCCN1c2ccc3ccccc3c2Sc2cccc(Cl)c21; Y
CN(C)CCCN1c2ccccc2Sc2ccc3ccccc3c21; Y
Cc1ccc2cc3cc(C(=O)N4CCCCC4C)oc3nc2c1 (centres undefined); N
CN(C)C(=O)c1ccc(-c2cncnc2NCCc2cnc[nH]2)cc1; Y
CN(CCc1ccccn1)c1ccc2c(c1)Cc1ccccc1-2; Y
O=C(O)c1ccccc1C(=O)NNc1ccc(Cl)cc1; N
CCCC1C(=O)N(c2ccccc2)C1c1ccccc1 (centres undefined); N
Cc1ccc(SCC(=O)NNC(=O)C2CCCCC2)cc1; N
CCC(Sc1nc2cc3c(cc2c(=O)n1Cc1ccco1)OCO3)C(=O)Nc1cccc(OC)c1 (centres undefined); Y

====

System tested: Cytochrome P450 2D6 (Homo sapiens) (UniProt P10635)
Experiment summary: Cytochrome panel assay with activity outcomes
Condition label: recombinant CYP, pro-luciferin dealkylation, luminescence, p450-cyp2d6; series mostly up to 57.1 µM
About 2,600 (16%) of roughly 16,000 compounds were called active. Roughly 20% stayed inconclusive and do not appear here. Calls come from the whole dose curve; as a rule, active = well fitted curve in the direction sought with a large enough effect; inconclusive = small, poorly fitted or top-dose-only effect, or effect the other way; inactive = no such curve, though single readings can be large or run the other way. A selection follows.
Outcomes: active, inactive

COc1cccc(Cn2nnc3c(=O)[nH]c(C4CCCN(C(=O)c5ccccc5Cl)C4)nc32)c1 (configuration not stated); active
O=C(CC(=O)NN=C1CCCC1)NCCc1ccccc1; inactive
CC(C)Cn1c(SCC(=O)c2c(N)n(C)c(=O)n(C)c2=O)nc2ccccc21; inactive
CNC(=S)Nc1ccc(Nc2ccccc2)cc1; inactive
Cc1ccc(-n2c3c(c(=O)[nH]c2=O)C(C(F)(F)F)(C(F)(F)F)NC(=O)N3)cc1; inactive
CCOc1ccc(N(CCC#N)S(=O)(=O)c2ccc(OC)cc2)cc1; inactive
COC(=O)CNC(c1ccccc1Cl)c1cc(Br)ccc1NC(=O)CCN1CCOCC1 (configuration not stated); inactive
CCCc1nnc(SCC(=O)N2C(C)CCCC2C)n1CCCOC (configuration not stated); inactive
S=C(Nc1ccccc1)Nc1ccc(OCc2ccccc2)cc1; inactive
COc1ccccc1Cn1nnc2c(=O)[nH]c(C3CCN(C(=O)c4ccc(C)cc4)CC3)nc21; inactive
CC(C)N=c1cc2n(-c3ccc(Cl)cc3)c3ccccc3nc-2cc1Nc1ccc(Cl)cc1; active
COc1ccc(Cc2nnc(NC(=O)c3ccco3)s2)cc1; inactive
C=CCC(C)(NCc1ccccc1)c1ccco1 (configuration not stated); active
CC(=O)N=c1sc(S(N)(=O)=O)nn1C; inactive
Cc1ccc(CNCC(O)(c2ccc(F)cc2)c2ccc(F)cc2)cc1; active
CC(=O)N(O)CCCCCNC(=O)CCC(=O)N(O)CCCCCNC(=O)CCC(=O)N(O)CCCCCN; inactive
COc1cccc(/C=N/NC(=O)CSc2nnc(C)n2-c2ccccc2)c1O; inactive
